# system: Der p 1 (Dermatophagoides pteronyssinus (European house dust mite))
# Sequence (P08176 99-320): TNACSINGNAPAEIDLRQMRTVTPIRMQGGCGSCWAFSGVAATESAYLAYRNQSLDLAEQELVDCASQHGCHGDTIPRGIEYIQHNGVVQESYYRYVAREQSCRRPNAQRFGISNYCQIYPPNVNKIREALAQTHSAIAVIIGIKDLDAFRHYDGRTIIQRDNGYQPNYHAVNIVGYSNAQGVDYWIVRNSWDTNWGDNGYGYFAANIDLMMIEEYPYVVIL
# assay-text: Der p 1 enzyme activity assay (FRET fluorogenic substrate)
# Format: biochemical
# run-parameters: threshold stated in text; read-out: Der p 1 IC50
# Protocol: The fluorogenic substrate used for measuring Der p 1 proteolytic activity was 2-aminobenzoylvalylalanylnorleucylseryl-(3-nitro)tyrosinyl aspartamide. […] Inhibitory activity was analysed from progress curves of reactions in the presence of a range of inhibitor concentrations. […] Then, IC50 was determined by fitting the data of fractional activity and inhibitor concentration to a 4-parameter logistic curve, using Equation 2: V=Vmin+[Vmax−Vmin]/[1+(X/IC50)Hillslope] […]
readout-name: IC50

Recorded IC50, per entry:
> print(dat)
                                   compound  readout.name  test.result
1  CC(C)[C@H](NC(=O)[C@H](C)NC(=O)[C@@H](NC(=O)c1cccc2ccccc12)C(C)(C)C)C(=O)C(=O)NCc1ccccc1          IC50     < 200 nM
2  CC(C)[C@H](NC(=O)[C@H](C)NC(=O)[C@@H](N1Cc2ccccc2C1=O)C(C)(C)C)C(=O)C(=O)NCc1ccc(S(N)(=O)=O)cc1          IC50      < 20 nM
3  CC(C)[C@H](NC(=O)[C@H](C)NC(=O)[C@@H](Cc1ccccc1)NC(=O)c1cccc(Oc2ccccc2)c1)C(=O)C(=O)NC1CCCCC1          IC50    < 2000 nM
4  COc1ccc(NC(=O)C(=O)[C@@H](NC(=O)[C@H](C)NC(=O)[C@H](Cc2ccccc2)NC(=O)c2ccccc2)C(C)C)cc1          IC50    < 2000 nM
5  CC(C)C(NC(=O)[C@H](C)NC(=O)[C@H](Cc1ccccc1)NC(=O)c1ccccc1)C(=O)C(=O)NCc1ccccn1 (stereo partly drawn)          IC50     < 200 nM

// next entry
Would you kindly share the measured IC50 for CC(C)[C@H](NC(=O)[C@H](C)NC(=O)C1CCCN1C(=O)c1ccccc1)C(=O)C(=O)NCC(=O)N1CCN(C)CC1 (stereo partly drawn) [PVA-145] ?
< 200 nM

---

// IC50 lookup, one value per entry
# system: Der p 1 (Dermatophagoides pteronyssinus (European house dust mite))
# assay-text: Der p 1 enzyme activity assay (FRET fluorogenic substrate)
# Assay type: biochemical
# run-parameters: threshold stated in text; read-out: Der p 1 IC50
# Description: The fluorogenic substrate used for measuring Der p 1 proteolytic activity was 2-aminobenzoylvalylalanylnorleucylseryl-(3-nitro)tyrosinyl aspartamide. […] Inhibitory activity was analysed from progress curves of reactions in the presence of a range of inhibitor concentrations. […] Then, IC50 was determined by fitting the data of fractional activity and inhibitor concentration to a 4-parameter logistic curve, using Equation 2: V=Vmin+[Vmax−Vmin]/[1+(X/IC50)Hillslope] […]

Recorded IC50, per entry:
> print(dat)
                                   molecule  test.result
1  CC(C)[C@H](NC(=O)[C@H](C)NC(=O)[C@H](Cc1ccccc1C(F)(F)F)NC(=O)c1ccncc1)C(=O)C(=O)NCc1ccccc1     < 0.2 µM
2  CC(C)[C@H](NC(=O)[C@H](C)NC(=O)[C@@H](N1Cc2ccccc2C1=O)C(C)(C)C)C(=O)C(=O)NCc1ccc(C(N)=O)cc1    < 0.02 µM
3  CCCCC(NC(=O)[C@H](C)NC(=O)[C@H](Cc1ccccc1)NC(=O)c1ccccc1)C(=O)C(=O)N1CCN(C)CC1 (stereo partly shown)       < 2 µM
4  CC(C)[C@H](NC(=O)[C@H](C)NC(=O)[C@H](Cc1cccc2ccccc12)NC(=O)c1cccc2ccccc12)C(=O)C(=O)NCC(=O)N1CCN(C)CC1     < 0.2 µM
5  CC(C)[C@H](NC(=O)[C@H](C)NC(=O)[C@H](Cc1ccccc1)NC(=O)c1ccc(N2CCOCC2)nc1)C(=O)C(=O)NCc1ccccc1       < 2 µM
6  CC(C)[C@H](NC(=O)[C@H](C)NC(=O)[C@@H](NC(=O)c1cnccn1)C(C)(C)C)C(=O)C(=O)NCc1ccccc1     < 0.2 µM
7  CC(C)[C@H](NC(=O)[C@H](C)NC(=O)[C@@H](NC(=O)c1ccccc1)C(C)(C)C)C(=O)C(=O)NCc1nccn1C     < 0.2 µM
8  COc1cccc(CNC(=O)C(=O)[C@@H](NC(=O)[C@H](C)NC(=O)[C@H](Cc2ccccc2)NC(=O)c2ccncc2)C(C)C)c1     < 0.2 µM

# query: IC50 | item CC(C)[C@H](NC(=O)[C@H](C)NC(=O)[C@H](Cc1ccccc1)N1Cc2ccccc2C1=O)C(=O)C(=O)NC1CCCCC1 | system: Der p 1 (Dermatophagoides pteronyssinus (European house dust mite))
< 0.02 µM

Another molecule to check: CC(C)[C@H](NC(=O)[C@H](C)NC(=O)[C@@H](NC(=O)c1ccc(=O)[nH]c1)C(C)(C)C)C(=O)C(=O)NC1CCCCC1
< 0.2 µM

Another molecule to check: CC(C)[C@H](NC(=O)[C@H](C)NC(=O)[C@H](Cc1ccccc1)NC(=O)c1ccncc1)C(=O)C(=O)NCC1CCN(C)CC1
< 0.2 µM

Another molecule to check: CC(C)[C@H](NC(=O)[C@H](C)NC(=O)[C@H](Cc1ccccc1)NC(=O)c1ccccc1)C(=O)C(=O)NC1CCCCC1
< 0.02 µM

Another molecule to check: CC(C)[C@H](NC(=O)[C@H](C)NC(=O)[C@@H](NC(=O)c1ccc(Cl)cc1)C(C)(C)C)C(=O)C(=O)NCc1ccccc1
< 0.2 µM
